These data points were gathered from the supplement of paper PMC10567573.

Test: protein stability index of a GFP-peptide fusion (GPS, HEK-293T) (PSI 1-6); higher = more stable;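 also: 24-mer peptide tiles fused after GFP, lentivirally expressed, FACS-sorted into six equal bins by GFP/DsRed ratio, decoded by Illumina sequencing, PSI is the read-weighted mean bin number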
Details: treatment: DMSO; c terminus: a fixed tail appended
For each entry below, report its protein stability index value.

polymer-sequence: SLFARAMQVLVTAISPGRFPEALD [ANKRD9]
test-value: 3.04
--
polymer-sequence: LIVGLQGMDLNLEAEALAGTGLVL [HDAC6]
test-value: 2.91

In the following, a different sequence is considered.
Q: Which protein stability index is listed for AKQTKRMLDMKVNPIQGLASKWDY [COX4I1] ?
Ans: 2.93

###

Assay: protein stability index of a GFP-peptide fusion (GPS, HEK-293T) (PSI 1-6); higher = more stable
Settings: treatment: MLN4924 1 uM, 8 h; c terminus: a fixed tail appended
For each entry below, report its protein stability index value.
Numbers only.

polymer-sequence: PEMRWNKGTILKASVDYIRKLQKE [TFE3]
protein stability index: 2.95

polymer-sequence: RDFLLDEANGLLPDDKLTLFCEVS [SPOPL]
protein stability index: 3.08

In the following, a different sequence is considered.
Q: Which protein stability index is listed for APSPGVKEQAIWKHPQPAPAVTPD [PKD2L1] ?
Ans: 5.07
